Biological target: active p38 alpha enzyme (Upstate Biotechnology) (Homo sapiens, UniProt Q16539)
Construct: purchased Upstate Biotechnology
Sequence (Q16539 whole entry): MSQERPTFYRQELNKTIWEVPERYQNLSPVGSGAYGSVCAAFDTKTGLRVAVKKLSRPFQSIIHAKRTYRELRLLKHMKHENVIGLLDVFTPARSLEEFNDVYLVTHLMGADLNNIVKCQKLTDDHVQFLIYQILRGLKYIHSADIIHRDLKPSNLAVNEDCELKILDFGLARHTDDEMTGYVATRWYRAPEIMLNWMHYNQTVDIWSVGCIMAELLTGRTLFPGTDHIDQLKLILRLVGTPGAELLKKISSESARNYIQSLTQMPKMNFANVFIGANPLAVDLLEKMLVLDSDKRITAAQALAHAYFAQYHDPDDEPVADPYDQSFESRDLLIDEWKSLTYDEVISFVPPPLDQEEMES
Assay: p38α biochemical assay (ATP turnover, luminescent detection, Cambrex PKlight)
Settings: p38α kinase; Table 1 Biological Activity
Metric Name: IC50

{"columns": ["Molecule", "Reported"],
 "data": [
  ["CC(C)NC(=O)c1csc(-c2oc(CNC(CO)C(C)C)nc2-c2ccc(F)cc2)n1 (stereo not drawn)", "> 1 µM"],
  ["CC(C)NC(=O)c1csc(-c2c(-c3ccc(F)cc3)noc2CNc2ccc3c(c2)OCCO3)n1", "> 1 µM"],
  ["Cc1nc(-c2ccc(F)cc2)c(-c2nc(C(=O)NCCc3ccccc3Cl)cs2)s1", "≤ 1 µM"],
  ["CC(C)NC(=O)c1csc(-c2c(-c3ccc(F)cc3)noc2CNCc2ccc(Cl)c(Cl)c2)n1", "> 1 µM"],
  ["CC(=O)Oc1ccccc1C(=O)N1CCC(c2[nH]nc(-c3ccc(F)cc3)c2-c2nc(C(=O)NC(C)C)cs2)CC1", "> 1 µM"],
  ["COc1cc2c(cc1OC)CN(C(=O)c1csc(-c3sc(C)nc3-c3ccc(F)cc3)n1)CC2", "≤ 1 µM"],
  ["Cc1nc(-c2ccc(F)cc2)c(-c2nc(C(=O)N(CCN(C)C)Cc3ccccc3)cs2)s1", "> 1 µM"],
  ["CC(C)NC(=O)c1csc(-c2c(-c3ccc(F)cc3)noc2CNCc2ccc(F)c(Cl)c2)n1", "> 1 µM"],
  ["CC(C)NC(=O)c1csc(-c2c(-c3ccc(F)cc3)noc2CN2CCN(c3ccc([N+](=O)[O-])cc3)CC2)n1", "> 1 µM"],
  ["CC(C)NC(=O)c1csc(-c2c(-c3ccc(F)cc3)n[nH]c2C2CCN(C(=O)C3CN(C(=O)OC(C)(C)C)CCN3)CC2)n1 (stereo not drawn) [Example 1029]", "≤ 1 µM"],
  ["Cc1nc(-c2ccc(F)cc2)c(-c2nc(C(=O)NCc3ccc(C)c(C)c3)cs2)s1", "≤ 1 µM"],
  ["Cc1cccc(N2CCN(Cc3onc(-c4ccc(F)cc4)c3-c3nc(C(=O)NC(C)C)cs3)CC2)c1C", "> 1 µM"],
  ["CC1CCCCC1NC(=O)c1csc(-c2c(-c3ccc(F)cc3)n[nH]c2C2CCNCC2)n1 (stereo not drawn)", "> 1 µM"],
  ["CCOc1ccccc1CNC(=O)c1csc(-c2c(-c3ccc(F)cc3)n[nH]c2C2CCNCC2)n1", "> 1 µM"],
  ["CC(C)NC(=O)c1csc(-c2c(-c3ccc(F)cc3)noc2CN2CCC(O)(c3ccc(Cl)cc3)CC2)n1", "> 1 µM"],
  ["COc1cccc(OC)c1C(=O)N1CCC(c2[nH]nc(-c3ccc(F)cc3)c2-c2nc(C(=O)NC(C)C)cs2)CC1", "> 1 µM"],
  ["Cc1nc(-c2ccc(F)cc2)c(-c2nc(C(=O)NCc3ccc(F)cc3F)cs2)s1", "≤ 1 µM"],
  ["CC(C)NC(=O)c1csc(-c2c(-c3ccc(F)cc3)n[nH]c2C2CCN(C(=O)c3ccccc3)CC2)n1 [Example 2170]", "> 1 µM"],
  ["CC(C)NC(=O)c1csc(-c2c(-c3ccc(F)cc3)noc2CNc2ccccc2C(C)C)n1", "> 1 µM"],
  ["CCN(CC)c1ccc(C(=O)N2CCC(c3[nH]nc(-c4ccc(F)cc4)c3-c3nc(C(=O)NC(C)C)cs3)CC2)cc1", "> 1 µM"],
  ["CC(C)NC(=O)c1csc(-c2oc(CNc3ncccc3OCc3ccccc3)nc2-c2ccc(F)cc2)n1", "> 1 µM"],
  ["Cc1nc(-c2ccc(F)cc2)c(-c2nc(C(=O)NCCCN3CCCC3=O)cs2)s1", "≤ 1 µM"],
  ["Cc1ccc(F)cc1C(=O)N1CCC(c2[nH]nc(-c3ccc(F)cc3)c2-c2nc(C(=O)NC(C)C)cs2)CC1", "> 1 µM"],
  ["CC(C)NC(=O)c1csc(-c2c(-c3ccc(F)cc3)noc2CN2C(C)CCCC2C)n1 (stereo not drawn)", "> 1 µM"],
  ["COc1cccc(CNCc2onc(-c3ccc(F)cc3)c2-c2nc(C(=O)NCC(C)C)cs2)c1", "> 1 µM"],
  ["Cc1nc(-c2ccc(F)cc2)c(-c2nc(C(=O)N3CCN(c4ccccc4C#N)CC3)cs2)s1", "≤ 1 µM"],
  ["CCC(C)C(NC(=O)OC(C)(C)C)C(=O)NCc1onc(-c2ccc(F)cc2)c1-c1nc(C(=O)NC(C)C)cs1 (stereo not drawn)", "> 1 µM"],
  ["CC(C)NC(=O)c1csc(-c2c(-c3ccc(F)cc3)noc2CN2CCN(c3ccc(F)cc3F)CC2)n1", "> 1 µM"],
  ["CC(CCc1ccccc1)NC(=O)c1csc(-c2c(-c3ccc(F)cc3)n[nH]c2C2CCNCC2)n1 (stereo not drawn)", "> 1 µM"],
  ["CC(C)CNC(=O)c1csc(-c2c(-c3ccc(F)cc3)n[nH]c2C2CCNCC2)n1", "> 1 µM"]
]}

Reference source for all entries: patent US20060252807A1
